Cited source: patent US5298495A

Please respond with reported LD50 for every item in the list.
Experiment: Acute toxicity in mice (DL50)
Assay type: in vivo
Settings: mouse, in vivo, ip, read-out: DL50 mice i.p.
Answers are plain numbers, in mg/kg.

Below, each entry is followed by its recorded LD50 result.
Compound	Metric name	Reported result
CNc1ccc(C(=O)CC(O)CCC(C)C2OC(=O)CC(O)CC(=O)CC(O)CC(O)CC(O)CC(O)CC3(O)CC(O)C(C(=O)N4CCN(C)CC4)C(CC(OC4OC(C)C(O)C(NC(=O)CN(C)C)C4O)C=CC=CC=CC=CC=CC=CC=CC2C)O3)cc1 (centres unmarked) [Partr. A, COCH2N(CH3)2, drawing 31]	LD50	3.6
CNc1ccc(C(=O)CC(O)CCC(C)C2OC(=O)CC(O)CC(=O)CC(O)CC(O)CC(O)CC(O)CC3(O)CC(O)C(C(=O)NCCCN(C)C)C(CC(OC4OC(C)C(O)C(NC(=O)CN(C)C)C4O)C=CC=CC=CC=CC=CC=CC=CC2C)O3)cc1 (centres unmarked)	LD50	12.4
CNc1ccc(C(=O)CC(O)CCC(C)C2OC(=O)CC(O)CC(=O)CC(O)CC(O)CC(O)CC(O)CC3(O)CC(O)C(C(=O)N4CCN(C)CC4)C(CC(OC4OC(C)C(O)C(NC(=O)CN5CCN(C)CC5)C4O)C=CC=CC=CC=CC=CC=CC=CC2C)O3)cc1 (centres unmarked) [Partr. A, drawing 42, drawing 43]	LD50	3.8

As a next step, examine the compound that follows.
Prompt: Name the recorded LD50 of the item CNc1ccc(C(=O)CC(O)CCC(C)C2OC(=O)CC(O)CC(=O)CC(O)CC(O)CC(O)CC(O)CC3(O)CC(O)C(C(=O)OC)C(CC(OC4OC(C)C(O)C(NC(=O)CN5CCN(C)CC5)C4O)C=CC=CC=CC=CC=CC=CC=CC2C)O3)cc1 (centres unmarked) [Partr. A, drawing 38, OCH3] in your answer.
Response: 29.3

###

Exercise: for every item that follows, state its recorded Hemolytic con. min. (MHC).
System: rat erytrocytes
Assay: Hemolytic activity on rat erythrocytes
Format: cell-based
Conditions: rat, 240 min
One number for each entry, in µg/mL.

Molecule	U	Reported result
CNc1ccc(C(=O)CC(O)CCC(C)C2OC(=O)CC(O)CC(=O)CC(O)CC(O)CC(O)CC(O)CC3(O)CC(O)C(C(=O)OC)C(CC(OC4OC(C)C(O)C(NC(=O)CN5CCN(CCO)CC5)C4O)C=CC=CC=CC=CC=CC=CC=CC2C)O3)cc1 (stereo not shown) [Partr. A, drawing 44, OCH3]	µg/mL	0.7
CNc1ccc(C(=O)CC(O)CCC(C)C2OC(=O)CC(O)CC(=O)CC(O)CC(O)CC(O)CC(O)CC3(O)CC(O)C(C(=O)OC)C(CC(OC4OC(C)C(O)C(NC(=O)CN5CCN(C)CC5)C4O)C=CC=CC=CC=CC=CC=CC=CC2C)O3)cc1 (stereo not shown) [Partr. A, drawing 38, OCH3]	µg/mL	0.7

Look up Hemolytic con. min. (MHC) for the entries below, preserving their order.
1. CNc1ccc(C(=O)CC(O)CCC(C)C2OC(=O)CC(O)CC(=O)CC(O)CC(O)CC(O)CC(O)CC3(O)CC(O)C(C(=O)N4CCN(CCO)CC4)C(CC(OC4OC(C)C(O)C(NC(=O)CN5CCN(CCO)CC5)C4O)C=CC=CC=CC=CC=CC=CC=CC2C)O3)cc1 (stereo not shown) [Partr. A, drawing 46, drawing 47]
2. CNc1ccc(C(=O)CC(O)CCC(C)C2OC(=O)CC(O)CC(=O)CC(O)CC(O)CC(O)CC(O)CC3(O)CC(O)C(C(=O)N4CCN(CCO)CC4)C(CC(OC4OC(C)C(O)C(NC(=O)CN5CCN(C)CC5)C4O)C=CC=CC=CC=CC=CC=CC=CC2C)O3)cc1 (stereo not shown) [Partr. A, drawing 40, drawing 41]

Response:
[0.2, 0.2]

###

I'd appreciate it if you could supply Hemolytic con. min. (MHC) values for the items below.
System: rat erytrocytes
Experiment: Hemolytic activity on rat erythrocytes
Assay type: cell-based
Details: rat, 240 min
Give bare numbers, in µg/mL.

Compound	Hemolytic con. min. (MHC) [µg/mL]
CNc1ccc(C(=O)CC(O)CCC(C)C2OC(=O)CC(O)CC(=O)CC(O)CC(O)CC(O)CC(O)CC3(O)CC(O)C(C(=O)N4CCN(C)CC4)C(CC(OC4OC(C)C(O)C(NC(=O)CN5CCN(CCO)CC5)C4O)C=CC=CC=CC=CC=CC=CC=CC2C)O3)cc1 (stereo not shown) [Partr. A, drawing 48, drawing 49]	0.2
CNc1ccc(C(=O)CC(O)CCC(C)C2OC(=O)CC(O)CC(=O)CC(O)CC(O)CC(O)CC(O)CC3(O)CC(O)C(C(=O)OC)C(CC(OC4OC(C)C(O)C(NC(=O)CCN5CCCCC5)C4O)C=CC=CC=CC=CC=CC=CC=CC2C)O3)cc1 (stereo not shown) [Partr. A, drawing 32, OCH3]	3.5
CNc1ccc(C(=O)CC(O)CCC(C)C2OC(=O)CC(O)CC(=O)CC(O)CC(O)CC(O)CC(O)CC3(O)CC(O)C(C(=O)NCCN(C)C)C(CC(OC4OC(C)C(O)C(NC(=O)CN(C)C)C4O)C=CC=CC=CC=CC=CC=CC=CC2C)O3)cc1 (stereo not shown) [Partr. A, COCH2N(CH3)2, NHCH2 CH2N(CH3)2]	18

Lab note: next compound to report on.
Prompt: Name the recorded Hemolytic con. min. (MHC) of the item CNc1ccc(C(=O)CC(O)CCC(C)C2OC(=O)CC(O)CC(=O)CC(O)CC(O)CC(O)CC(O)CC3(O)CC(O)C(C(=O)NCCN(C)C)C(CC(OC4OC(C)C(O)C(NC(=O)CN5CCN(C)CC5)C4O)C=CC=CC=CC=CC=CC=CC=CC2C)O3)cc1 (stereo not shown) [Partr. A, drawing 39, NHCH2 CH2N(CH3)2] in your answer.
Response: 2

###

System: rat erytrocytes
Test: Hemolytic activity on rat erythrocytes
Type: cell-based
Details: rat, 240 min
Metric name: Hemolytic con. min. (MHC) (µg/mL)
Give bare numbers, in µg/mL.

Molecule	System	U	Reported result
CNc1ccc(C(=O)CC(O)CCC(C)C2OC(=O)CC(O)CC(=O)CC(O)CC(O)CC(O)CC(O)CC3(O)CC(O)C(C(=O)N4CCN(C)CC4)C(CC(OC4OC(C)C(O)C(NC(=O)CCN5CCCCC5)C4O)C=CC=CC=CC=CC=CC=CC=CC2C)O3)cc1 (stereo not shown) [Partr. A, drawing 36, drawing 37]	rat erytrocytes	µg/mL	0.2

Provide each entry's Hemolytic con. min. (MHC) from the list below.
1. CNc1ccc(C(=O)CC(O)CCC(C)C2OC(=O)CC(O)CC(=O)CC(O)CC(O)CC(O)CC(O)CC3(O)CC(O)C(C(=O)NCCc4ccccn4)C(CC(OC4OC(C)C(O)C(NC(=O)CN(C)C)C4O)C=CC=CC=CC=CC=CC=CC=CC2C)O3)cc1 (stereo not shown) [Partr. A, COCH2N(CH3)2, drawing 50]
2. CNc1ccc(C(=O)CC(O)CCC(C)C2OC(=O)CC(O)CC(=O)CC(O)CC(O)CC(O)CC(O)CC3(O)CC(O)C(C(=O)N4CCN(CCO)CC4)C(CC(OC4OC(C)C(O)C(NC(=O)CCN5CCCCC5)C4O)C=CC=CC=CC=CC=CC=CC=CC2C)O3)cc1 (stereo not shown) [Partr. A, drawing 34, drawing 35]
3. CNc1ccc(C(=O)CC(O)CCC(C)C2OC(=O)CC(O)CC(=O)CC(O)CC(O)CC(O)CC(O)CC3(O)CC(O)C(C(=O)NCCCN(C)C)C(CC(OC4OC(C)C(O)C(NC(=O)CN(C)C)C4O)C=CC=CC=CC=CC=CC=CC=CC2C)O3)cc1 (stereo not shown)

Response:
[18, 0.2, 0.2]

###

What Hemolytic con. min. (MHC) was measured for each of the following?
System: rat erytrocytes
Experiment: Hemolytic activity on rat erythrocytes
Format: cell-based
Conditions: rat, 240 min
Please don't drop the unit; write it after the number.

Consider the reported Hemolytic con. min. (MHC) for these compounds:
Compound	System	Hemolytic con. min. (MHC)
CNc1ccc(C(=O)CC(O)CCC(C)C2OC(=O)CC(O)CC(=O)CC(O)CC(O)CC(O)CC(O)CC3(O)CC(O)C(C(=O)NCCN(C)C)C(CC(OC4OC(C)C(O)C(NC(=O)CN5CCN(CCO)CC5)C4O)C=CC=CC=CC=CC=CC=CC=CC2C)O3)cc1 (stereo not shown) [Partr. A, drawing 45, NHCH2 CH2N(CH3)2]	rat erytrocytes	0.7 µg/mL
CNc1ccc(C(=O)CC(O)CCC(C)C2OC(=O)CC(O)CC(=O)CC(O)CC(O)CC(O)CC(O)CC3(O)CC(O)C(C(=O)N4CCN(CCO)CC4)C(CC(OC4OC(C)C(O)C(NC(=O)CN(C)C)C4O)C=CC=CC=CC=CC=CC=CC=CC2C)O3)cc1 (stereo not shown) [Partr. A, COCH2N(CH3)2, drawing 30]	rat erytrocytes	0.2 µg/mL
CNc1ccc(C(=O)CC(O)CCC(C)C2OC(=O)CC(O)CC(=O)CC(O)CC(O)CC(O)CC(O)CC3(O)CC(O)C(C(=O)NCCc4ccccn4)C(CC(OC4OC(C)C(O)C(NC(=O)CCN5CCCCC5)C4O)C=CC=CC=CC=CC=CC=CC=CC2C)O3)cc1 (stereo not shown) [Partr. A, drawing 51, drawing 52]	rat erytrocytes	6 µg/mL

From here, focus on the item given below.
Prompt: Name the recorded Hemolytic con. min. (MHC) of the item CNc1ccc(C(=O)CC(O)CCC(C)C2OC(=O)CC(O)CC(=O)CC(O)CC(O)CC(O)CC(O)CC3(O)CC(O)C(C(=O)NCCN(C)C)C(CC(OC4OC(C)C(O)C(NC(=O)CCN5CCCCC5)C4O)C=CC=CC=CC=CC=CC=CC=CC2C)O3)cc1 (stereo not shown) [Partr. A, drawing 33, NHCH2 CH2N(CH3)2] in your answer.
Response: 6 µg/mL
